Reference source: ChEMBL document CHEMBL1821618

Target: Neuraminidase (Influenza A virus (strain A/Brevig Mission/1/1918 H1N1) (Influenza Avirus (strain A/South Carolina/1/1918 H1N1)), UniProt Q9IGQ6)
Sequence (Q9IGQ6 whole entry): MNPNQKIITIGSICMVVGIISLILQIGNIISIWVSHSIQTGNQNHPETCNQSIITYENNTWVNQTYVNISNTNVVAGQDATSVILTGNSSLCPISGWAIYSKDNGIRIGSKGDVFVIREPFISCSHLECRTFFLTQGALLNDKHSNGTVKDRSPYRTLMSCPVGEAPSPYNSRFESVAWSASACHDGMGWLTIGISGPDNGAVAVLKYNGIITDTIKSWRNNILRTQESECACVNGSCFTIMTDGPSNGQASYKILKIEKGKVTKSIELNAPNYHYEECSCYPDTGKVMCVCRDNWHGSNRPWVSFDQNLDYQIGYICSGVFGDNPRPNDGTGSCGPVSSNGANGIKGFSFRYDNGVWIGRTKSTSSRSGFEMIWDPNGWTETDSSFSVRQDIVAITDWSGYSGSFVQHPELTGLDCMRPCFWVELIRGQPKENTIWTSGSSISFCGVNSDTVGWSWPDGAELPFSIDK
Assay: Inhibition of Influenza A virus (A/Brevig Mission/1/1918(H1N1)) recombinant neuraminidase using 4-methylumbelliferyl-alpha-D-N-acetylneuraminic acid sodium salt hydrate solution substrate by ELISA
# pIC50 values compiled below
Schema: pIC50 number; meaning minus log10 of the concentration expressed in molar units.

molecule=COc1ccc(C(=O)/C=C/c2ccc(O)cc2)c(O)c1C/C=C(\C)CCC=C(C)C reported=4.07
molecule=COC(CC/C(C)=C/Cc1c(O)ccc(C(=O)/C=C/c2ccc(O)cc2)c1O)OC reported=4.51
molecule=COc1ccc(C(=O)/C=C/c2ccc(O)cc2)c(O)c1CC=C(C)C reported=4.38
molecule="C=C(C)C(O)Cc1c(OC)ccc(C(=O)/C=C/c2ccc(O)cc2)c1O (stereo unspecified)" reported=4.91
molecule="C=C(C)C(O)CC/C(C)=C/Cc1c(OC)ccc(C(=O)/C=C/c2ccc(O)cc2)c1O (stereo unspecified)" reported=4.62

For the molecule C=C(C)C(O)CC/C(C)=C/Cc1c(O)ccc(C(=O)/C=C/c2ccc(O)cc2)c1O (stereo unspecified) , give its measured pIC50 value.
4.65

---

Target: Neuraminidase (Influenza A virus (strain A/Brevig Mission/1/1918 H1N1) (Influenza Avirus (strain A/South Carolina/1/1918 H1N1)), UniProt Q9IGQ6)
Assay: Noncompetitive inhibition of Influenza A virus (A/Brevig Mission/1/1918(H1N1)) recombinant neuraminidase using 4-methylumbelliferyl-alpha-D-N-acetylneuraminic acid sodium salt hydrate solution substrate by double reciprocal Lineweaver-Burk plot and dixon plot analysis
experimental-readout: Ki (µM)
The response must be a number in µM with no trailing unit.

Example results:
compound=COC(CC/C(C)=C/Cc1c(O)ccc(C(=O)/C=C/c2ccc(O)cc2)c1O)OC reported=33.5
compound=COc1ccc(C(=O)/C=C/c2ccc(O)cc2)c(O)c1C/C=C(\C)CCC=C(C)C reported=123
compound="C=C(C)C(O)CC/C(C)=C/Cc1c(O)ccc(C(=O)/C=C/c2ccc(O)cc2)c1O (stereo unspecified)" reported=20.7
compound="C=C(C)C(O)Cc1c(OC)ccc(C(=O)/C=C/c2ccc(O)cc2)c1O (stereo unspecified)" reported=14
compound=COc1ccc(C(=O)/C=C/c2ccc(O)cc2)c(O)c1CC=C(C)C reported=50.2

Here is the next item to consider.
For the compound C=C(C)C(O)CC/C(C)=C/Cc1c(OC)ccc(C(=O)/C=C/c2ccc(O)cc2)c1O (stereo unspecified) , give its measured Ki value.
20
